# Tested on: 292921-168-R-J2-PDC complex spheroid growth
# method notes: Anticancer human tumor 292921-168-R-J2-PDC patient-derived pancreatic carcinoma cell line growth inhibition [AhR]; active = viability on the fitted dose curve at most 10% of control; inactive = the rest
# condition set: second compound 1 µM; first compound 0.3 µM
Outcomes: active, inactive

| compound | assigned category |
| --- | --- |
| CCN(c1cc(-c2ccc(CN3CCOCC3)cc2)cc(C(=O)NCc2c(C)cc(C)[nH]c2=O)c1C)C1CCOCC1 + CC(CO)NC(=O)c1cc(-c2ccc(Cl)cc2)nn(-c2cnn(C)c2)c1=O | inactive |
| Nc1ncn(C2CC(O)C(CO)S2)c(=O)n1 (stereo not given) + Cc1ccccc1N=Nc1ccc(NC(=O)c2ccnn2C)c(C)c1 | inactive |
| O=C(C=Cn1cnc(-c2cc(C(F)(F)F)cc(C(F)(F)F)c2)n1)NNc1cnccn1 + Cc1ccccc1N=Nc1ccc(NC(=O)c2ccnn2C)c(C)c1 | inactive |
| CCc1c2c(nc3ccc(O)cc13)-c1cc3c(c(=O)n1C2)COC(=O)[C@]3(O)CC + CC(CO)NC(=O)c1cc(-c2ccc(Cl)cc2)nn(-c2cnn(C)c2)c1=O | active |
| CC(C)CC(NC(=O)C(Cc1ccccc1)NC(=O)c1cnccn1)B(O)O (stereo not given) + CC(CO)NC(=O)c1cc(-c2ccc(Cl)cc2)nn(-c2cnn(C)c2)c1=O | active |
| CCc1c2c(nc3ccc(O)cc13)-c1cc3c(c(=O)n1C2)COC(=O)[C@]3(O)CC + Cc1cncc(-c2nc(NCCc3c[nH]c4ccccc34)c3ncn(C(C)C)c3n2)c1 | active |
| CC(C)CC(NC(=O)C(Cc1ccccc1)NC(=O)c1cnccn1)B(O)O (stereo not given) + Cc1cncc(-c2nc(NCCc3c[nH]c4ccccc34)c3ncn(C(C)C)c3n2)c1 | active |
| CC(C)CC(NC(=O)C(Cc1ccccc1)NC(=O)c1cnccn1)B(O)O (stereo not given) + Cc1ccccc1N=Nc1ccc(NC(=O)c2ccnn2C)c(C)c1 | active |
| CCc1c2c(nc3ccc(O)cc13)-c1cc3c(c(=O)n1C2)COC(=O)[C@]3(O)CC + Cc1ccccc1N=Nc1ccc(NC(=O)c2ccnn2C)c(C)c1 | active |
| Nc1ncn(C2CC(O)C(CO)S2)c(=O)n1 (stereo not given) + Cc1cncc(-c2nc(NCCc3c[nH]c4ccccc34)c3ncn(C(C)C)c3n2)c1 | inactive |
| CCN(c1cc(-c2ccc(CN3CCOCC3)cc2)cc(C(=O)NCc2c(C)cc(C)[nH]c2=O)c1C)C1CCOCC1 + Cc1cncc(-c2nc(NCCc3c[nH]c4ccccc34)c3ncn(C(C)C)c3n2)c1 | inactive |
| O=C(C=Cn1cnc(-c2cc(C(F)(F)F)cc(C(F)(F)F)c2)n1)NNc1cnccn1 + CC(CO)NC(=O)c1cc(-c2ccc(Cl)cc2)nn(-c2cnn(C)c2)c1=O | inactive |
| CCN(c1cc(-c2ccc(CN3CCOCC3)cc2)cc(C(=O)NCc2c(C)cc(C)[nH]c2=O)c1C)C1CCOCC1 + Cc1ccccc1N=Nc1ccc(NC(=O)c2ccnn2C)c(C)c1 | inactive |
| Nc1ncn(C2CC(O)C(CO)S2)c(=O)n1 (stereo not given) + CC(CO)NC(=O)c1cc(-c2ccc(Cl)cc2)nn(-c2cnn(C)c2)c1=O | inactive |
| O=C(C=Cn1cnc(-c2cc(C(F)(F)F)cc(C(F)(F)F)c2)n1)NNc1cnccn1 + Cc1cncc(-c2nc(NCCc3c[nH]c4ccccc34)c3ncn(C(C)C)c3n2)c1 | inactive |

----------
# Tested on: 292921-168-R-J2-PDC complex spheroid growth
# method notes: Anticancer human tumor 292921-168-R-J2-PDC cell line growth inhibition [AhR];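 also: spheroids exposed to compounds for seven days after three days of growth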
# condition set: second compound 0.316 µM; first compound 10 µM; stronger effect = lower value
So basically: is viability, T/C under 20%? Then MET. Not under? Then NOT MET.

| compound | assigned category |
| --- | --- |
| CC1COCCN1c1cc(C2(S(C)(=N)=O)CC2)nc(-c2ccnc3[nH]ccc23)n1 (stereo not drawn) + Cc1cncc(-c2nc(NCCc3c[nH]c4ccccc34)c3ncn(C(C)C)c3n2)c1 | NOT MET |
| O=C(c1cc(Cc2n[nH]c(=O)c3ccccc23)ccc1F)N1CCN(C(=O)C2CC2)CC1 + Cc1ccccc1N=Nc1ccc(NC(=O)c2ccnn2C)c(C)c1 | NOT MET |
| CC1(C)CCC(CN2CCN(c3ccc(C(=O)NS(=O)(=O)c4ccc(NCC5CCOCC5)c([N+](=O)[O-])c4)c(Oc4cnc5[nH]ccc5c4)c3)CC2)=C(c2ccc(Cl)cc2)C1 + Cc1ccccc1N=Nc1ccc(NC(=O)c2ccnn2C)c(C)c1 | MET |
| CC(C)c1c(-c2ccccc2)nc2c(C#N)c[nH]n2c1=O + CC(CO)NC(=O)c1cc(-c2ccc(Cl)cc2)nn(-c2cnn(C)c2)c1=O | NOT MET |
| CC(C)c1c(-c2ccccc2)nc2c(C#N)c[nH]n2c1=O + Cc1ccccc1N=Nc1ccc(NC(=O)c2ccnn2C)c(C)c1 | NOT MET |
| NS(=O)(=O)OCC1CC(n2ccc3c(NC4CCc5ccccc54)ncnc32)CC1O (stereo not drawn) + Cc1cncc(-c2nc(NCCc3c[nH]c4ccccc34)c3ncn(C(C)C)c3n2)c1 | MET |
| COc1cc(Nc2ncc3c(n2)-c2ccc(Cl)cc2C(c2c(F)cccc2OC)=NC3)ccc1C(=O)O + Cc1ccccc1N=Nc1ccc(NC(=O)c2ccnn2C)c(C)c1 | NOT MET |
| Nc1ccccc1NC(=O)c1ccc(CNC(=O)OCc2cccnc2)cc1 + CC(CO)NC(=O)c1cc(-c2ccc(Cl)cc2)nn(-c2cnn(C)c2)c1=O | MET |
| COc1cc(C2c3cc4c(cc3C(OC3OC5COC(C)OC5C(O)C3O)C3COC(=O)C23)OCO4)cc(OC)c1O (stereo not drawn) + Cc1ccccc1N=Nc1ccc(NC(=O)c2ccnn2C)c(C)c1 | MET |
| Nc1ccccc1NC(=O)c1ccc(CNC(=O)OCc2cccnc2)cc1 + Cc1cncc(-c2nc(NCCc3c[nH]c4ccccc34)c3ncn(C(C)C)c3n2)c1 | MET |
| Nc1ccccc1NC(=O)c1ccc(CNC(=O)OCc2cccnc2)cc1 + Cc1ccccc1N=Nc1ccc(NC(=O)c2ccnn2C)c(C)c1 | MET |
| CC(C)c1c(-c2ccccc2)nc2c(C#N)c[nH]n2c1=O + Cc1cncc(-c2nc(NCCc3c[nH]c4ccccc34)c3ncn(C(C)C)c3n2)c1 | NOT MET |
| COc1cccc2c1C(=O)c1c(O)c3c(c(O)c1C2=O)CC(O)(C(=O)CO)CC3OC1CC(N)C(O)C(C)O1 (stereo not drawn) + Cc1cncc(-c2nc(NCCc3c[nH]c4ccccc34)c3ncn(C(C)C)c3n2)c1 | MET |

----------
# System: 292921-168-R-J2-PDC complex spheroid growth
# method notes: Anticancer human tumor 292921-168-R-J2-PDC cell line growth inhibition [AhR];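 also: spheroids exposed to compounds for seven days after three days of growth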
# condition set: curve of first compound; second compound 1 µM
pIC50: −log10 of the molar value.

| compound | target under test | bound sign | pIC50 |
| --- | --- | --- | --- |
| CC1COCCN1c1cc(-c2ccnn2C)c2ccnc(-c3ccn[nH]3)c2n1 (centres undefined) + Cc1cncc(-c2nc(NCCc3c[nH]c4ccccc34)c3ncn(C(C)C)c3n2)c1 | 292921-168-R-J2-PDC complex spheroid growth | = | 7.39 |
| CC1(C)CCC(CN2CCN(c3ccc(C(=O)NS(=O)(=O)c4ccc(NCC5CCOCC5)c([N+](=O)[O-])c4)c(Oc4cnc5[nH]ccc5c4)c3)CC2)=C(c2ccc(Cl)cc2)C1 + CC(CO)NC(=O)c1cc(-c2ccc(Cl)cc2)nn(-c2cnn(C)c2)c1=O | 292921-168-R-J2-PDC complex spheroid growth | = | 5.17 |
| O=C(C=Cc1cccc(S(=O)(=O)Nc2ccccc2)c1)NO + CC(CO)NC(=O)c1cc(-c2ccc(Cl)cc2)nn(-c2cnn(C)c2)c1=O | 292921-168-R-J2-PDC complex spheroid growth | = | 6.58 |
| O=C(c1cc(Cc2n[nH]c(=O)c3ccccc23)ccc1F)N1CCN(C(=O)C2CC2)CC1 + CC(CO)NC(=O)c1cc(-c2ccc(Cl)cc2)nn(-c2cnn(C)c2)c1=O | 292921-168-R-J2-PDC complex spheroid growth | < | 5.00 |
| Cn1ncnc1C1c2n[nH]c(=O)c3cc(F)cc(c23)NC1c1ccc(F)cc1 (centres undefined) + CC(CO)NC(=O)c1cc(-c2ccc(Cl)cc2)nn(-c2cnn(C)c2)c1=O | 292921-168-R-J2-PDC complex spheroid growth | < | 7.00 |
| Nc1ccn(C2OC(CO)C(O)C2(F)F)c(=O)n1 (centres undefined) + CC(CO)NC(=O)c1cc(-c2ccc(Cl)cc2)nn(-c2cnn(C)c2)c1=O | 292921-168-R-J2-PDC complex spheroid growth | > | 7.50 |
| Nc1ccn(C2OC(CO)C(O)C2(F)F)c(=O)n1 (centres undefined) + Cc1cncc(-c2nc(NCCc3c[nH]c4ccccc34)c3ncn(C(C)C)c3n2)c1 | 292921-168-R-J2-PDC complex spheroid growth | > | 7.50 |
| CC1(C)CCC(CN2CCN(c3ccc(C(=O)NS(=O)(=O)c4ccc(NCC5CCOCC5)c([N+](=O)[O-])c4)c(Oc4cnc5[nH]ccc5c4)c3)CC2)=C(c2ccc(Cl)cc2)C1 + Cc1cncc(-c2nc(NCCc3c[nH]c4ccccc34)c3ncn(C(C)C)c3n2)c1 | 292921-168-R-J2-PDC complex spheroid growth | = | 5.17 |
| Nc1ncn(C2CC(O)C(CO)O2)c(=O)n1 (centres undefined) + Cc1cncc(-c2nc(NCCc3c[nH]c4ccccc34)c3ncn(C(C)C)c3n2)c1 | 292921-168-R-J2-PDC complex spheroid growth | < | 6.00 |
| CC(C)CC(NC(=O)C(Cc1ccccc1)NC(=O)c1cnccn1)B(O)O (centres undefined) + Cc1ccccc1N=Nc1ccc(NC(=O)c2ccnn2C)c(C)c1 | 292921-168-R-J2-PDC complex spheroid growth | = | 8.23 |
| COc1cccc2c1C(=O)c1c(O)c3c(c(O)c1C2=O)CC(O)(C(=O)CO)CC3OC1CC(N)C(O)C(C)O1 (centres undefined) + Cc1ccccc1N=Nc1ccc(NC(=O)c2ccnn2C)c(C)c1 | 292921-168-R-J2-PDC complex spheroid growth | > | 7.50 |
| CCc1c2c(nc3ccc(O)cc13)-c1cc3c(c(=O)n1C2)COC(=O)[C@]3(O)CC + Cc1cncc(-c2nc(NCCc3c[nH]c4ccccc34)c3ncn(C(C)C)c3n2)c1 | 292921-168-R-J2-PDC complex spheroid growth | = | 8.72 |
| Cn1ncnc1C1c2n[nH]c(=O)c3cc(F)cc(c23)NC1c1ccc(F)cc1 (centres undefined) + Cc1ccccc1N=Nc1ccc(NC(=O)c2ccnn2C)c(C)c1 | 292921-168-R-J2-PDC complex spheroid growth | < | 7.00 |
| Nc1ncn(C2CC(O)C(CO)O2)c(=O)n1 (centres undefined) + CC(CO)NC(=O)c1cc(-c2ccc(Cl)cc2)nn(-c2cnn(C)c2)c1=O | 292921-168-R-J2-PDC complex spheroid growth | < | 6.00 |
| O=C(C=Cc1cccc(S(=O)(=O)Nc2ccccc2)c1)NO + Cc1cncc(-c2nc(NCCc3c[nH]c4ccccc34)c3ncn(C(C)C)c3n2)c1 | 292921-168-R-J2-PDC complex spheroid growth | = | 6.55 |
| CCc1c2c(nc3ccc(O)cc13)-c1cc3c(c(=O)n1C2)COC(=O)[C@]3(O)CC + Cc1ccccc1N=Nc1ccc(NC(=O)c2ccnn2C)c(C)c1 | 292921-168-R-J2-PDC complex spheroid growth | = | 8.48 |
| CC1COCCN1c1cc(-c2ccnn2C)c2ccnc(-c3ccn[nH]3)c2n1 (centres undefined) + Cc1ccccc1N=Nc1ccc(NC(=O)c2ccnn2C)c(C)c1 | 292921-168-R-J2-PDC complex spheroid growth | = | 7.48 |
| COc1cc(Nc2ncc3c(n2)-c2ccc(Cl)cc2C(c2c(F)cccc2OC)=NC3)ccc1C(=O)O + Cc1cncc(-c2nc(NCCc3c[nH]c4ccccc34)c3ncn(C(C)C)c3n2)c1 | 292921-168-R-J2-PDC complex spheroid growth | > | 7.50 |
| Nc1ncn(C2CC(O)C(CO)S2)c(=O)n1 (centres undefined) + Cc1ccccc1N=Nc1ccc(NC(=O)c2ccnn2C)c(C)c1 | 292921-168-R-J2-PDC complex spheroid growth | < | 6.52 |
| O=C(C=Cc1cccc(S(=O)(=O)Nc2ccccc2)c1)NO + Cc1ccccc1N=Nc1ccc(NC(=O)c2ccnn2C)c(C)c1 | 292921-168-R-J2-PDC complex spheroid growth | = | 6.28 |
| COc1cc(C2c3cc4c(cc3C(OC3OC5COC(C)OC5C(O)C3O)C3COC(=O)C23)OCO4)cc(OC)c1O (centres undefined) + Cc1cncc(-c2nc(NCCc3c[nH]c4ccccc34)c3ncn(C(C)C)c3n2)c1 | 292921-168-R-J2-PDC complex spheroid growth | = | 6.54 |
| O=C(C=Cn1cnc(-c2cc(C(F)(F)F)cc(C(F)(F)F)c2)n1)NNc1cnccn1 + Cc1ccccc1N=Nc1ccc(NC(=O)c2ccnn2C)c(C)c1 | 292921-168-R-J2-PDC complex spheroid growth | = | 6.94 |
| Nc1ccn(C2OC(CO)C(O)C2(F)F)c(=O)n1 (centres undefined) + Cc1ccccc1N=Nc1ccc(NC(=O)c2ccnn2C)c(C)c1 | 292921-168-R-J2-PDC complex spheroid growth | > | 7.50 |
| Nc1ccccc1NC(=O)c1ccc(CNC(=O)OCc2cccnc2)cc1 + Cc1cncc(-c2nc(NCCc3c[nH]c4ccccc34)c3ncn(C(C)C)c3n2)c1 | 292921-168-R-J2-PDC complex spheroid growth | = | 6.60 |
